# Test system: Saccharomyces cerevisiae;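 note: PSI is a weighted mean of sequencing reads over stability bins, variants kept only with over 10 reads, mCherry proximal and sfGFP distal, peptide attached via GGGS linker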
# ASSAY_COMMENT: protein stability index of tFT-peptide fusion (C-terminal peptide) (PSI (0-1 scale)); higher = more stable (slower turnover)
# TEST_SETTINGS: genetic background: cdc53-1; temperature: 37 C
Listed below: protein stability index values for each entry.
MEASURED_PROPERTY: protein stability index

[
  {
    "INPUT_SEQUENCE": "CCVFFLLCLSLF",
    "MEASURED_PROPERTY": "protein stability index",
    "RESULT_VALUE": 0.44
  },
  {
    "INPUT_SEQUENCE": "YVLLDFFFFFLV",
    "MEASURED_PROPERTY": "protein stability index",
    "RESULT_VALUE": 0.329
  },
  {
    "INPUT_SEQUENCE": "VSCLDLCFVISR",
    "MEASURED_PROPERTY": "protein stability index",
    "RESULT_VALUE": 0.681
  },
  {
    "INPUT_SEQUENCE": "SISVQCSMLRVL",
    "MEASURED_PROPERTY": "protein stability index",
    "RESULT_VALUE": 0.47
  },
  {
    "INPUT_SEQUENCE": "SSLTFTFAILLY",
    "MEASURED_PROPERTY": "protein stability index",
    "RESULT_VALUE": 0.188
  },
  {
    "INPUT_SEQUENCE": "SCFDRQIFVPVC",
    "MEASURED_PROPERTY": "protein stability index",
    "RESULT_VALUE": 0.393
  },
  {
    "INPUT_SEQUENCE": "VLILFFLVVFYV",
    "MEASURED_PROPERTY": "protein stability index",
    "RESULT_VALUE": 0.294
  },
  {
    "INPUT_SEQUENCE": "FLLYVITYRSET",
    "MEASURED_PROPERTY": "protein stability index",
    "RESULT_VALUE": 0.304
  },
  {
    "INPUT_SEQUENCE": "LCIFFWFSSFFL",
    "MEASURED_PROPERTY": "protein stability index",
    "RESULT_VALUE": 0.561
  },
  {
    "INPUT_SEQUENCE": "SIRVIVAVRNIS",
    "MEASURED_PROPERTY": "protein stability index",
    "RESULT_VALUE": 0.648
  },
  {
    "INPUT_SEQUENCE": "LVVYLSCVACIN",
    "MEASURED_PROPERTY": "protein stability index",
    "RESULT_VALUE": 0.028
  },
  {
    "INPUT_SEQUENCE": "WGRENLTRVKLE",
    "MEASURED_PROPERTY": "protein stability index",
    "RESULT_VALUE": 0.769
  },
  {
    "INPUT_SEQUENCE": "CFVRCFVSIRLF",
    "MEASURED_PROPERTY": "protein stability index",
    "RESULT_VALUE": 0.167
  },
  {
    "INPUT_SEQUENCE": "DVLLVVVLGRFL",
    "MEASURED_PROPERTY": "protein stability index",
    "RESULT_VALUE": 0.563
  },
  {
    "INPUT_SEQUENCE": "GGIVLLVRVCGP",
    "MEASURED_PROPERTY": "protein stability index",
    "RESULT_VALUE": 0.636
  },
  {
    "INPUT_SEQUENCE": "WFIFTITSVAGL",
    "MEASURED_PROPERTY": "protein stability index",
    "RESULT_VALUE": 0.0301
  },
  {
    "INPUT_SEQUENCE": "CGSFWVNVLCAV",
    "MEASURED_PROPERTY": "protein stability index",
    "RESULT_VALUE": 0.422
  },
  {
    "INPUT_SEQUENCE": "TWGGGRVSLGVG",
    "MEASURED_PROPERTY": "protein stability index",
    "RESULT_VALUE": 0.397
  },
  {
    "INPUT_SEQUENCE": "VFLSCFFVSWVV",
    "MEASURED_PROPERTY": "protein stability index",
    "RESULT_VALUE": 0.403
  }
]
